- test.summary: Lipophilicity determination by RP-HPLC (capacity factor k / log k)
- measurement.context: C18, isocratic MeOH 72%/H2O 28%
log k strictly under 0.3 means class 1; at 0.3 or over means class 0.

Below, 7 compounds whose answers are already recorded.
Field: below-cutoff. Rule: recorded log k strictly less than 0.3. Subject: O=C(/C=C/c1ccccc1)Nc1cc(C(F)(F)F)ccc1Cl
class 0

Field: below-cutoff. Rule: recorded log k strictly less than 0.3. Subject: Cc1ccc(C)c(NC(=O)/C=C/c2ccccc2)c1
class 1

Field: below-cutoff. Rule: recorded log k strictly less than 0.3. Subject: O=C(/C=C/c1ccccc1)Nc1c(Br)cccc1Br
class 1

Field: below-cutoff. Rule: recorded log k strictly less than 0.3. Subject: O=C(/C=C/c1ccccc1)Nc1cc(F)ccc1Br
class 0

Field: below-cutoff. Rule: recorded log k strictly less than 0.3. Subject: O=C(/C=C/c1ccccc1)Nc1cc(Cl)ccc1Cl
class 0

Field: below-cutoff. Rule: recorded log k strictly less than 0.3. Subject: Cc1ccc(NC(=O)/C=C/c2ccccc2)cc1
class 1

Field: below-cutoff. Rule: recorded log k strictly less than 0.3. Subject: O=C(/C=C/c1ccccc1)Nc1cccc(C(F)(F)F)c1
class 0

Pending compound:
Field: below-cutoff. Rule: recorded log k strictly less than 0.3. Subject: Cc1cccc(NC(=O)/C=C/c2ccccc2)c1
class 1
